Experiment: Metabolic stability in human liver S9 fraction assessed as compound remaining at 3 uM measured at 60 mins by LC-MS/MS analysis
Format: ADME, subcellular
Settings: read-out: Stability
assay.metric: remaining at 1 h, 3 µM (%)

Recorded remaining at 1 h, 3 µM, per entry:
Cc1cccnc1Nc1nc(-c2ccc(OC3CCOCC3)cn2)no1 :: 98
Cc1cccnc1-c1nsc(Nc2ccc(N3CCCC3)cn2)n1 :: 86
CC(C)Oc1ccc(-c2nsc(Nc3ncccc3C(C)C)n2)nc1 :: 99
Cc1cccnc1Nc1nc(-c2ccc(OC(C)C)cn2)ns1 :: 100

1: Cc1cccnc1Nc1nc(-c2ccc(OC3CC4(C3)CN(C3CC3)C4)cn2)ns1
2: Cc1cccnc1Nc1nc(-c2ccc(OC3CCOCC3)cn2)ns1
Prompt: Which record would sort first by descending remaining at 1 h, 3 µM, 1 or 2 ? Kindly state the label of the option you pick.
Completion: 2
(2: 84%, 1: 58%)

====

Assay: Metabolic stability in rat liver S9 fraction assessed as compound remaining at 3 uM measured at 60 mins by LC-MS/MS analysis
Type: ADME, subcellular
Conditions: read-out: Stability
assay.metric: remaining at 1 h, 3 µM (%)

CN1CCC(Oc2ccc(Nc3nc(-c4ccccn4)ns3)nc2)CC1 :: 99
CN(C)c1cccnc1Nc1nc(-c2ccc(OC3CC3)cn2)ns1 :: 91
CC(C)Oc1ccc(-c2nsc(Nc3ncccc3C(C)C)n2)nc1 :: 82
CNc1cccnc1Nc1nc(-c2ccc(OC(C)C)cn2)ns1 :: 73
Cc1cccnc1Nc1nc(-c2cc(C#N)ccn2)ns1 :: 78
CC(C)Oc1ccc(-c2nsc(Nc3ncccc3N(C)C)n2)nc1 :: 79
Cc1cccnc1Nc1nc(-c2ccc(OC3CC4(C3)CN(C3CC3)C4)cn2)ns1 :: 53
CC(C)Oc1cc(-c2nsc(Nc3ncccc3N(C)C)n2)ncc1C(F)(F)F :: 8

P: CC(C)Oc1ccc(-c2nsc(N(C)c3ncccc3C(C)C)n2)nc1
Q: Cc1ccnc(-c2nsc(Nc3ncccc3C(F)(F)F)n2)c1
Prompt: Which record would sort first by descending remaining at 1 h, 3 µM, P or Q ? Kindly state the label of the option you pick.
Completion: Q

====

Assay: Metabolic stability in human liver S9 fraction assessed as compound remaining at 3 uM measured at 60 mins by LC-MS/MS analysis
Assay type: ADME, subcellular
Conditions: read-out: Stability
assay.metric: remaining at 1 h, 3 µM (%)

Recorded remaining at 1 h, 3 µM, per entry:
CC(C)Oc1cc(-c2nsc(Nc3ncccc3N(C)C)n2)ncc1C(F)(F)F :: 100
COc1cccnc1Nc1nc(-c2cc(C)ccn2)ns1 :: 72
CC(C)c1ccnc(-c2nsc(Nc3cc(C(F)(F)F)ccn3)n2)c1 :: 65

1: CC(C)c1cccnc1Nc1nc(-c2ccc(OC3CC3)cn2)ns1
2: Cc1cccnc1Nc1nc(-c2ccc(OC3CCN(C4CC4)CC3)cn2)ns1
Prompt: Select the item whose remaining at 1 h, 3 µM value is smaller, choosing between 1 and 2 . Kindly state the label of the option you pick.
Completion: 1

1: Cc1cccnc1Nc1nc(-c2cc(C#N)ccn2)ns1
2: CC(C)c1cnc(Nc2nc(-c3ncccc3OC3CC3)ns2)cc1C(F)(F)F
Prompt: Which record would sort first by descending remaining at 1 h, 3 µM, 1 or 2 ? Kindly state the label of the option you pick.
Completion: 2

====

Experiment: Metabolic stability in rat liver S9 fraction assessed as compound remaining at 3 uM measured at 60 mins by LC-MS/MS analysis
Type: ADME, subcellular
Conditions: read-out: Stability
assay.metric: remaining at 1 h, 3 µM (%)

Cc1cccnc1Nc1nc(-c2ccc(OC3CCN(C4CC4)CC3(F)F)cn2)ns1 (centres undefined) :: 32
CC(C)Oc1ccc(-c2nsc(Nc3cc(C(F)(F)F)c(C(C)C)cn3)n2)nc1 :: 100
Cc1cccnc1Nc1nc(-c2ccc(OC(C)C)cn2)ns1 :: 100
Cc1cccnc1N(C)c1nc(-c2ccc(OC(C)C)cn2)ns1 :: 81
Cc1cccnc1Nc1nc(-c2cc(C#N)c(OC(C)C)cn2)ns1 :: 84
Cc1cccnc1Nc1nc(-c2ccc(OC3CCN(C4CC4)CC3)cn2)ns1 :: 76
Cc1nccnc1Nc1nc(-c2ccc(OC(C)C)cn2)ns1 :: 100
Cc1cccnc1Nc1nc(-c2ccc(C(=O)N(C)C)cn2)ns1 :: 94
Cc1cccnc1Nc1nc(-c2cnc(OC(C)C)cn2)ns1 :: 74
c1ccc(Nc2nc(-c3ccccn3)ns2)nc1 :: 83

a: CC(C)c1ccnc(-c2nsc(Nc3ncccc3C(F)(F)F)n2)c1
b: Cc1cccnc1Nc1nc(-c2ccc(OC3CCOCC3)cn2)no1
c: COc1ccc(Nc2nc(-c3ccccn3)cs2)nc1
Prompt: Place the items in sequence of falling remaining at 1 h, 3 µM. Write the labels in rank order as requested.
Completion: b, c, a
(b: 85%, c: 51%, a: 27%)

====

Test: Kinetic solubility of compound incubated for 24 hrs
Assay type: physicochemical
Details: read-out: Kinetic_solubility
assay.metric: solubility kinetic at 24 h (µM)
Express it in µM; write the number only.

Prompt: Which measured solubility kinetic at 24 h value corresponds to `Cc1cccnc1-c1nsc(Nc2ccc(N3CCCC3)cn2)n1` ?
Completion: 2.17

====

Test: Metabolic stability in human liver microsome assessed as compound remaining at 3 uM measured at 30 mins in presence of NADPH by LC-MS/MS analysis
Format: ADME
Conditions: liver microsomes, read-out: Stability
assay.metric: remaining at 0.5 h, 3 µM (%)

Cc1cccnc1Nc1nc(-c2ncc(OC(C)C)cn2)ns1 :: 96
Cc1cccnc1Nc1nsc(-c2ccc(OC3CCOCC3)cn2)n1 :: 77
CC(C)Oc1cnc(-c2nsc(Nc3ncccc3C(C)C)n2)cc1C(F)(F)F :: 97
CC(C)Oc1cnc(-c2nsc(Nc3ncccc3N(C)C)n2)cc1C(F)(F)F :: 98
Cc1cccnc1Nc1nnc(-c2ccc(OC3CCOCC3)cn2)o1 :: 83
COc1ccc(Nc2nc(-c3ccccn3)ns2)nc1 :: 90
Cc1cccnc1Nc1nnc(-c2ccc(OC3CCOCC3)cn2)s1 :: 100
Cc1cccnc1Nc1n[nH]c(-c2ccc(OC3CCOCC3)cn2)n1 :: 92
Cc1cccnc1Nc1nc(-c2cc(C(=O)N(C)C)c(OC(C)C)cn2)ns1 :: 91

====

Assay: Metabolic stability in human liver S9 fraction assessed as compound remaining at 3 uM measured at 60 mins by LC-MS/MS analysis
Assay type: ADME, subcellular
Settings: read-out: Stability
assay.metric: remaining at 1 h, 3 µM (%)

a: Cc1cccnc1Nc1nc(-c2ccc(OC3CCN(C4CC4)CC3(F)F)cn2)ns1 (centres undefined)
b: Cc1cccnc1Nc1nc(-c2cc(C3CCN(C)CC3)ccn2)ns1
Prompt: Select the item whose remaining at 1 h, 3 µM value is smaller, choosing between a and b . Kindly state the label of the option you pick.
Completion: a

====

Experiment: Metabolic stability in rat liver S9 fraction assessed as compound remaining at 3 uM measured at 60 mins by LC-MS/MS analysis
Assay type: ADME, subcellular
Conditions: read-out: Stability
assay.metric: remaining at 1 h, 3 µM (%)

Cc1cccnc1Nc1nc(-c2ccc(C#N)cn2)ns1 :: 73
Cc1cccnc1Nc1nc(-c2cc(C(=O)N(C)C)ccn2)ns1 :: 78
Cc1cccnc1Nc1nc(-c2ccc(OC3CC3)cn2)ns1 :: 61
CC(C)c1cnc(Nc2nc(-c3ncccc3OC3CC3)ns2)cc1C(F)(F)F :: 93
Cc1cccnc1-c1nsc(Nc2ccc(N3CCCC3)cn2)n1 :: 61
CC(C)c1cccnc1Nc1nc(-c2ccc(OC3CC3)cn2)ns1 :: 78
Cc1cccnc1N(c1nc(-c2ccc(OC(C)C)cn2)ns1)C(C)C :: 60
Cc1cccnc1Nc1nc(-c2cc(C3CCN(C)CC3)ccn2)ns1 :: 81
COc1cccnc1Nc1nc(-c2ccc(OC(C)C)cn2)ns1 :: 100
Cc1cccnc1Nc1nc(-c2ccc(OC3CCOCC3)cn2)ns1 :: 82
CC(C)c1ccnc(-c2nsc(Nc3cc(C(F)(F)F)ccn3)n2)c1 :: 45
